Please respond with reported EC50 for every item in the list.
Assay: inhibitors of firefly luciferase expression or activity, dose response, H4 neuroglioma cells, luminescence (AID 1990)
Type: functional, cell-based
Active and inactive are the calls of the source. Rule as the data show it: actives have a measured EC50 and inactives only a lower limit.

Below are some molecules; for each one, tell me its EC50.
1. Cn1c(NCc2ccco2)nc2c1c(=O)n(Cc1ccc(Cl)cc1)c(=O)n2C
2. O=c1cc(CN2CCc3ccccc32)nc2sccn12
3. NC1=NC2=C(CCCC2)C2(CCCCC2)S1
4. O=C(O)c1cccc(COc2ccc3c(c2)CCC3)c1
5. Cc1ccc(C(=O)NNC(=O)CCCN2C(=O)/C(=C/c3ccccc3Cl)SC2=S)cc1
6. C[n+]1c(-c2ccccc2)c2cc(N)ccc2c2ccc(N)cc21

["16.9 µM (active)", "18.2 µM (active)", "> 120 µM (not active)", "0.212 µM (active)", "10.8 µM (active)", "> 120 µM (not active)"]
